target: B-cat-Halo (beta-catenin HaloTag fusion expressed in HEK293 cells) (UniProt P35222 1-781); assay: NanoBRET Abs IC50 in HEK293 cells; Bcat-Halo / TCF4-Luc engagement, competitor TCF4-Luc
Sequence (P35222 whole entry, the tested form may be a part): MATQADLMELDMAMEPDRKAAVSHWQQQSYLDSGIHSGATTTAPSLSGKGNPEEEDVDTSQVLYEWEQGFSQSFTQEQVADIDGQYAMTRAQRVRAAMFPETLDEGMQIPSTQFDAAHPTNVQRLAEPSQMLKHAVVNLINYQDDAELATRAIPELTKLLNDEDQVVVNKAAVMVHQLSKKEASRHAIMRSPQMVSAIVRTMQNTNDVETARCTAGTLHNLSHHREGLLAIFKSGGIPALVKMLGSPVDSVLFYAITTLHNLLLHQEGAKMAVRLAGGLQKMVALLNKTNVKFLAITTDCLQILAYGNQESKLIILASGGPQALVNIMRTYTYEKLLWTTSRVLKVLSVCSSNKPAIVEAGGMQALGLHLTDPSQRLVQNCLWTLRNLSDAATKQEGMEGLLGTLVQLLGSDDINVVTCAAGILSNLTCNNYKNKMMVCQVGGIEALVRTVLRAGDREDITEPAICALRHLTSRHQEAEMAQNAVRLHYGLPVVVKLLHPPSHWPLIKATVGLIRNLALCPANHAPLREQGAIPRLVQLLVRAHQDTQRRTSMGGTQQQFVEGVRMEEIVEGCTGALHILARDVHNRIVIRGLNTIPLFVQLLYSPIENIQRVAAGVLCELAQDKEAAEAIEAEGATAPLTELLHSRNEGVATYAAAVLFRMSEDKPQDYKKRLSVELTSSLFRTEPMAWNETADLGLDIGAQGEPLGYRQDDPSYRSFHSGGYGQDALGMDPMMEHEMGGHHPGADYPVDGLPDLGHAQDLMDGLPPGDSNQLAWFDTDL
pIC50: −log10 of the molar value. Starred links: 1 amine or outer side, 2 acyl side, 3 side chain; linkers in the order of their positions; H or OH if unused. Positions of bridges follow the written chain, without caps; N, C: chain ends. Non-standard residues stand in square brackets, D forms with d. Primed or numbered codes have the meaning given here. PyrS2″ = (S)-3-amino-1-((pent-4-en-1-yloxy)carbonyl)pyrrolidine-3-carboxylic acid (stapling residue), C=CCCCOC(=O)N1CC[C@@](N[*:1])(C(=O)[*:2])C1; B5(5) = 2,2-bis(4-pentenyl)glycine, 2-amino-2-(pent-4-en-1-yl)hept-6-enoic acid (stitching residue), C=CCCCC(CCCC=C)(N[*:1])C(=O)[*:2]; Phe(3-CF3) = N[C@@H](Cc1cccc(C(F)(F)F)c1)C(=O)O; Bta = N[C@@H](Cc1csc2ccccc12)C(=O)O; αAllylPro = C=CC[C@@]1(C(=O)O)CCCN1; tBuAla = CC(C)(C)C[C@H](N)C(=O)O
measurement-kind: pIC50

[
  {
    "binder": "Ac-[αAllylPro]D[tBuAla][B5(5)]DTAA[Phe(3-CF3)]T[PyrS2″]F[Bta]S-NH2 (staple 1-4, 4-11) [I-1268: Ac-PL3-Asp-Npg-B5-Asp-Thr-Ala-Ala-3F3MeF-Thr-PyrS2-Phe-BztA-Ser-NH2]",
    "recorded-measurement": 4.55
  }
]
